Method Description: Volume of distribution at steady state in Wistar rat at 1 mg/kg, iv
Format: ADME, organism-based
Set-up: dose 1 mg/kg, route intravenous
Reported Conditions: in vivo, read-out: Vdss
Reported Property: Vd (L/kg)

- N#Cc1cc(O[C@@H]2C[C@H]3CC[C@@H](C2)N3)cc(-c2ncccc2C#N)c1: 6.9

* * *

Method Description: Oral bioavailability in Wistar rat at 10 mg/kg
Format: ADME, organism-based
Reported Conditions: in vivo
Reported Property: bioavailability (%)

• N#Cc1cc(O[C@@H]2C[C@H]3CC[C@@H](C2)N3)cc(-c2ncccc2C#N)c1 = 34
